# Assay details: protein stability index of a GFP-peptide fusion (GPS, HEK-293T) (PSI 1-6); higher = more stable;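 further: 24-mer peptide tiles fused after GFP, lentivirally expressed, FACS-sorted into six equal bins by GFP/DsRed ratio, decoded by Illumina sequencing, PSI is the read-weighted mean bin number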
# Particulars: treatment: DMSO; c terminus: a fixed tail appended
protein stability index reference
Measured parameter: protein stability index

>>> result_number("ASAETLPAGFRVSTLGTLQPPPAP [PPFIA4]")
3.94
>>> result_number("APQGGMAALNMSLGMVTPVNDLRG [ADD1]")
3.83
>>> result_number("MAMPNGFHEDGPQGPGGDEDDDEE [PSD2]")
5.41
>>> result_number("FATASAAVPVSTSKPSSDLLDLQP [SNAP91]")
4.01
>>> result_number("KEPVIIECGHNFCKACITRWWEDL [TRIM39]")
2.53
>>> result_number("YNNQSLGHGSHSFIYYENMLLGVP [PKD2L1]")
2.16
>>> result_number("FLLQNDANPSIRDKEGYNSIHYAA [ANKRD44]")
2.75
>>> result_number("GYPTYKEKVKKRPGGRPEVIYNYV [BTBD10]")
2.41
>>> result_number("GPMPMSMPNVMTGTMGMAPLGNTP [CLINT1]")
4.03
>>> result_number("NLIKSENYGKILVEKNEHCIENNI [R3HDM1]")
3.5
>>> result_number("RMLVAASWACAFTNALTHTVAMST [OR3A1]")
3.07
>>> result_number("IVGIVEKGNRTARIIDKPRVIEVL [SEPHS2]")
2.56
>>> result_number("KHFCPRTPVILVGCQLDLRYADLE [RHOBTB1]")
2.35
>>> result_number("NISGLRFETQLKTLCQFPETLLGD [KCNA3]")
2.89
>>> result_number("PQVLADLGSFESPANSETSDLTLY [PCDHGA10]")
4.19
>>> result_number("SQFHSVRPQGPQLRQQQHKQNKQV [DNAJC4]")
4.85
>>> result_number("KAFRSDSSFNFFVFFFIFFVQDVL [SCAMP3]")
3.36
>>> result_number("IIISEPMGYMLFNERMLESYLHAK [CARM1]")
2.66
>>> result_number("ESKMYATSPYSDPVVSMDLDPQPI [PTPRD]")
4.18
>>> result_number("KDPKAGDSKSGGSGSESDHTTRSS [DVL3]")
5.3
>>> result_number("QLSMLPHLADLVSYSIQKVIGFAK [VDR]")
2.28
>>> result_number("QYLRLPDAPEQRLRVMTTNIRSAR [ELOA2]")
3.58
>>> result_number("CYMATTKSQTACLPFVLAAAVSRK [EHMT1]")
2.14
>>> result_number("VLPCIQQIQRISLNTLTLNVKSEK [FLOT1]")
2.84
>>> result_number("RLIRKMFSFKVSRWMGLACFRSLA [CCDC70]")
2.35
>>> result_number("RAKDLVELDPEVEGTKPSATEMIW [GOLPH3L]")
4.07
>>> result_number("SPQFEGPLSPPPINYNGIFSLKQE [NEUROD6]")
3.96

###

protein stability index reference
# Assay details: protein stability index of a GFP-peptide fusion (GPS, HEK-293T) (PSI 1-6); higher = more stable
# Particulars: treatment: DMSO; c terminus: a fixed tail appended
Measured parameter: protein stability index

>>> result_number("CLGALCENTCLLRGFSGGILAFLV [TSPAN10]")
2.34
>>> result_number("NNDCRIYVGNLPPDIRTKDIEDVF [SRSF1]")
3.09
>>> result_number("CPRIAPADSGRYRASPTRTAPLPM [ELOA2]")
3.63
>>> result_number("GTPTSHVYMFKNGSGDSGDSSEEE [LYSMD4]")
5.37
>>> result_number("ELLKEAELIRNIQELLKRTIMQAV [TEKT4]")
2.4
>>> result_number("AVCLLGVGTMVGADILAGREDNSG [SLC35F2]")
3.17
>>> result_number("TDEFRELRATVERMGLMKANHVFF [FADS1]")
2.48
>>> result_number("GSRLCLYEDGTELTEDYFPSVPDN [DFFB]")
4.44
>>> result_number("RTTPSRREITGVQAQPGEATSGPP [PALM]")
5.25
>>> result_number("LPLLESCSVRPDASVSSHRFFGPN [TCF25]")
3.17
>>> result_number("YFYMSCLVKHKRIHSREKRGDSVK [ZNF649]")
1.73
>>> result_number("LGRSLTAVFMWPGKDSRWLPSLVL [SLC29A1]")
2.98
>>> result_number("CRPLLPSCTTRLCQEEQLRSHENK [PSD2]")
4

###

# Assay details: protein stability index of a GFP-peptide fusion (GPS, HEK-293T) (PSI 1-6); higher = more stable
# Particulars: treatment: DMSO; c terminus: a fixed tail appended
protein stability index reference
Measured parameter: protein stability index

>>> result_number("GLLQLDHRGLRCSWEGLAVLDSLL [RSAD1]")
2.31
>>> result_number("QAMFDTLGIPKSTTSDIPHMLNQV [FAM98B]")
3.18
>>> result_number("TQTTNDGVCQSMCHDKYTKIFNDF [ZMYND11]")
3.05
>>> result_number("TKFQELQLAAGRHGDDLKNTKNEI [KRT71]")
4.12
>>> result_number("QRELHSHVTNAMVLVNVLQAIYVI [DHCR7]")
2.61
>>> result_number("GDPRPKIVWNKKGKKVSNQRFEVI [PTPRD]")
2.94
>>> result_number("SDLFDLMGSSQATMTSSQSMNFSM [CLINT1]")
2.42
>>> result_number("ASDYSKKSNVLKLKTADWRVFLFQ [PSD2]")
2.12
>>> result_number("GPGDGPPEIAQNFSAPDPPRPRPV [SMTNL2]")
5.05
>>> result_number("EARFIRRSCTPNAEVRHEIQDGTI [KMT2E]")
4.34
>>> result_number("ELVHFLLLKYRAREPVTKAEMLGS [MAGEA3]")
2.54
>>> result_number("QVEIFSTNPDLYPVRRIDGLTDVS [IQUB]")
3.71
>>> result_number("EHKSLTGTARYMSINTHLGKEQSR [CSNK1G3]")
4.02
>>> result_number("TVEEAKAEKETELSLQKEQLQLKI [TRIM29]")
5.1
>>> result_number("LHTANLGDSGFLVVRGGEVVHRSD [PPTC7]")
3.62
>>> result_number("PAFTVWCGSFQVTTGLQVPSAVRC [FSD1]")
2.63
>>> result_number("KDKRRIVSSSQDGKVIVWDSFTTN [GNB5]")
3.63
>>> result_number("QPPNAEEESGSSSASEEEDTKPKP [INTS3]")
5.72
>>> result_number("SGPEEPLLEEEEKQWGPLEREPVR [RTN2]")
5.51
>>> result_number("DLPINVFKLLAGRWPFDHNDFGVF [EDNRA]")
2.19
>>> result_number("INVPIRLECVKFASHCLMNHPDLA [PDS5B]")
2.28
>>> result_number("PGPAPGSPGELEEDLLLPGACPGA [WEE1]")
5.24
>>> result_number("FSDSRSNNDDDEDEDDEDEDEDED [TAF7L]")
5.7
>>> result_number("WYLKEEDHYQRVKREREKEDIALN [RHOBTB1]")
3.94
>>> result_number("PPASARRLSVPRDSACDESSCIPK [IRX6]")
5.33
>>> result_number("NDIPHSIPLEQGSSCNGPGQTTGH [FAN1]")
5.24
>>> result_number("GHKRKQPLPKRVAKVPRPPSTLLP [FOXJ1]")
4.02

###

# Assay details: protein stability index of a GFP-peptide fusion (GPS, HEK-293T) (PSI 1-6); higher = more stable
# Particulars: treatment: DMSO; c terminus: a fixed tail appended
Classify by measured protein stability index: YES if it is equal to or exceeds 4, NO if it is smaller.

>>> group_label("RPRPQGRSVSEPRDQHPQPSLGDS [RTN2]")
"YES"
>>> group_label("WYSPYAKTLQPTKQPNCSSLFKLK [PLD5]")
"NO"
>>> group_label("SVGFQSNEAASLASTGVGVVKVIS [SLC2A12]")
"NO"
>>> group_label("LKNTPRFKRRRVRRRRMETIVFLD [PCMTD2]")
"NO"
>>> group_label("AHQHRDKMQQSKNQVVSSTNGELN [CSNK1G3]")
"YES"
>>> group_label("DKFIEDYLLPDTCFRMQINHAIDI [OAS1]")
"NO"
>>> group_label("FSLACSLMGPSRMSLFSLYMVQDQ [M1AP]")
"NO"
>>> group_label("NPKWTKWLQKLCCPCCFGRDCLVL [PI4K2A]")
"NO"
>>> group_label("MKRDVQEGQARCLAHLGRHMEALE [C8orf76]")
"NO"
>>> group_label("QALGEHLKLRQQVIATATVYFKRF [CCNC]")
"NO"
>>> group_label("ESRDRPSCAPSASIPKLKLTRPVP [PWWP2B]")
"YES"
>>> group_label("AAPAVRASSSPVTLRQKTVDWRRV [SLA]")
"NO"
>>> group_label("TMIRKLEGHHHDVVACDFSPDGAL [WSB1]")
"NO"
>>> group_label("HLYIYSIHSIPKGTEITIAFDFDY [KMT2E]")
"NO"
>>> group_label("TSFNHMDSDKLSGLWSRISHLVLP [TOR1AIP2]")
"NO"
>>> group_label("IDPRNGIPKLTPGDNPYMYPEQSK [SPATS1]")
"YES"
>>> group_label("HTTGPTGSAPNSPMALLTIGSSSE [TFE3]")
"YES"
>>> group_label("HQLGFIHRDIKPDNLLLDAKGHVK [STK38L]")
"NO"
>>> group_label("RASALLASCSKNCTNSPAIVRFSG [FBXO34]")
"NO"
>>> group_label("SEAPNEKLFFVDTGSKEKGLTKKR [NOP53]")
"YES"
>>> group_label("EWNEKVTQSDLYKKTQETLSQAGQ [TPD52L2]")
"YES"
>>> group_label("HDTEIRKVHMKDVMSALWVSGLDS [GAN]")
"NO"
>>> group_label("VKKCLELFSELAEDKENYKKFYEA [HSP90AB1]")
"NO"
>>> group_label("ERAKELYSSGEFSSGRKWGDDAPK [INTS4]")
"YES"
>>> group_label("LNAYMKSLLSLPVWVLMDEDVRIF [NCF4]")
"NO"
>>> group_label("KAHKYSELIILYEKKGLHEKALQV [VPS39]")
"NO"
>>> group_label("WSVTGKAEPAMPGRLYVHPDSPAT [TBX5]")
"NO"
